Study System: UniProt:F5BFC8
Sequence (F5BFC8 whole entry): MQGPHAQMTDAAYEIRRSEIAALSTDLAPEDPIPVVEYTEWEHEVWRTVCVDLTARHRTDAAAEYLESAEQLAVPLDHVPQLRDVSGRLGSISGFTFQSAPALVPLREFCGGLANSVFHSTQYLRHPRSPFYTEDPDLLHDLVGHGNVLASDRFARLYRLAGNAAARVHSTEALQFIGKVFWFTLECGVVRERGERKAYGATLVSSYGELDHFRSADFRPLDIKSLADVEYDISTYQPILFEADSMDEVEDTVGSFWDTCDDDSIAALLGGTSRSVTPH
Property Label: Ki (µM)
Numeric only. Scale: µM

I'm curious: which Ki was measured for NC(Cc1cccc(F)c1)C(=O)O (racemic) tested on UniProt:F5BFC8?
800
